Tested on: SW-620 colon
method: NCI-60 one-dose screen, 48 h
assay-setup: 10 µM unless noted
Compounds without any hit were thinned out: in the full panel of roughly 83,000, 20% have a hit. Active and inactive are the calls of the source. The calls were made as follows: active = growth percent below 10; inactive = the rest.
Choose one outcome from this list and give only that: active, inactive

C(=C1c2ccccc2-c2ccccc21)c1ccncc1 :: inactive
COc1cc(/C=C2\CN(C)CC3=C2Nc2nc(SC)[nH]c(=O)c2C3c2cc(OC)c(OC)c(OC)c2)cc(OC)c1OC (centres undefined) :: inactive
Nc1ccccc1C#Cc1ccccc1C#Cc1ccc(OCCCCCCOc2ccc(C#Cc3ccccc3C#Cc3ccccc3N)cc2)cc1 :: inactive

(Q) Outcome logged for c1cc[n+](Cc2ccnc3ccccc23)cc1 in this assay:
(A) inactive

(Q) Outcome logged for CC[C@@H](C)/C=C(C)/C=C/C(=O)c1c(O)c(-c2ccc(O)cc2)cn(OC2CC(=O)CCC(C)OC(=O)CC2O)c1=O (some centres undefined) in this assay:
(A) inactive

(Q) Outcome logged for NS(=O)(=O)c1ccc(-n2ncc3c(N/N=C/c4ccccc4)ncnc32)cc1 in this assay:
(A) inactive

(Q) Outcome logged for CN1CCN(c2nc3scc(-c4ccccc4)c3c(=O)[nH]2)CC1 in this assay:
(A) inactive

(Q) Outcome logged for CCOC(=O)CCN(c1c(Cl)ssc1=O)C(C)C in this assay:
(A) inactive

---

Tested on: EKVX NSCLC
method: NCI-60 one-dose screen, 48 h
assay-setup: 10 µM unless noted
This is part of a sample that, as a whole, favours compounds with a hit. Of some 83,000 tested, about 20% had one in any assay. Activity calls are given as the source filed them. How the source made its calls: active means growth percent below 10; inactive means the rest.
Choose one outcome from this list and give only that: active, inactive

Worked set:
COc1ccc(/C=C2/SC(=Nc3c(C)nn(-c4ccccc4)c3N)NC2=O)cc1 :: inactive
COc1cccc2c1C(=O)c1c(O)c3c(c(O)c1C2=O)C[C@@](O)(C(C)=O)C[C@@H]3O[C@H]1C[C@H](N)[C@H](O)[C@H](C)O1 :: active
COc1ccc(C2CC(c3ccc4c(c3)OCO4)=NN2C=O)cc1 (centres undefined) :: inactive
O=c1[nH]c(SCc2ccccc2)nc2nc(Nc3ccc(NC(=S)Nc4ccccc4)cc3)nc(-c3ccc(O)cc3O)c12 :: inactive
Nc1ccc2c(c1)C(=O)c1cc(Cl)c(Cl)cc1-2 :: inactive
OCc1n(Cc2ccc3ccccc3c2)cc[n+]1Cc1ccc2ccccc2c1 :: inactive
COc1cc(-c2nnc(-c3nc(-c4cc(OC)c(OC)c(OC)c4)n4ccccc34)o2)ccc1N :: active
O=C1C2C(C(=O)N1CC[Se][Se]CCN1C(=O)C3C(C1=O)[C@H]1C=C[C@@H]3C1)[C@H]1C=C[C@@H]2C1 (some centres undefined) :: active

(Q) Outcome logged for Cc1cc(Cl)ccc1Nc1nc(C(F)(F)F)ccc1C(=O)N/N=C/c1ccc(Cl)cc1 in this assay:
(A) active

---

Tested on: 786-0 renal
method: NCI-60 one-dose screen, 48 h
assay-setup: 10 µM unless noted
About 83,000 compounds went through this panel and 20% of them were active in at least one assay; those are over-represented in the sample as a whole. Activity calls are given as the source filed them. How the source made its calls: active means growth percent below 10; inactive means the rest.
Choose one outcome from this list and give only that: active, inactive

COc1cnc2c(c1)C(=O)c1c-2n(CCCn2ccnc2)c(=O)c2cc(F)ccc12 :: active
CCCCCCCCN(CCO)CCCCCCCC :: inactive
Cc1ccc(C2=NNC(c3sc(Cl)nc3Cl)C2)cc1 (stereo unspecified) :: inactive
CC(=O)OCC(=O)[C@@]1(O)CC[C@H]2[C@@H]3CCC4=CC(=O)CC[C@]4(C)[C@@]3(F)[C@@H](O)C[C@@]21C :: inactive
COC(=O)[C@H](Cc1cn(C)cn1)NC(=O)[C@@H](NC(=O)Nc1cc(C(F)(F)F)cc(C(F)(F)F)c1)C(C)C :: active
COc1ccc(C(=O)/C=C/c2cccc(Nc3ccnc4cc(Cl)ccc34)c2)cc1 :: active
CC1C(=O)NC2=Nc3ccccc3C(=O)NN21 (stereo unspecified) :: inactive
CCc1nn2c(-c3ccc(Cl)cc3C)c(-c3cc(OC)c(OC)c(OC)c3)nc2s1 :: inactive
Cc1ccc(-c2csc(N)n2)cc1 :: inactive
CCCCCCCCCCNCCSS(=O)(=O)O :: inactive

(Q) Outcome logged for O=[N+]([O-])c1cc([N+](=O)[O-])c(N2CCCC2)cc1NN=C(c1ccc(O)cc1)c1ccc(O)cc1 in this assay:
(A) active

(Q) Outcome logged for CCCCN=C(N)c1ccc(OCCSCCOc2ccc(C(N)=NCCCC)cc2)cc1 in this assay:
(A) inactive

(Q) Outcome logged for O=C(O)CCNS(=O)(=O)c1ccc(-c2ccccc2)cc1 in this assay:
(A) inactive

(Q) Outcome logged for O=C1/C(=C\c2coc3ccccc3c2=O)c2ccccc2N1c1c(Cl)cccc1Cl in this assay:
(A) inactive

(Q) Outcome logged for O=C1OC2(c3ccccc31)c1ccccc1-c1ccccc12 in this assay:
(A) inactive

(Q) Outcome logged for CC(C)Sc1nc(-c2ccc(Br)cc2)c(C#N)c(N2CCCCC2)n1 in this assay:
(A) inactive

---

Test system: ACHN renal
method: NCI-60 one-dose screen, 48 h
assay-setup: 10 µM unless noted
This is part of a sample that, as a whole, favours compounds with a hit. Of some 83,000 tested, about 20% had one in any assay. Active and inactive are the calls of the source. The calls were made as follows: active = growth percent below 10; inactive = the rest.
Choose one outcome from this list and give only that: active, inactive

Worked set:
Cc1cc2c(cc1C)[n+](Cc1ccc3ccccc3c1)cn2Cc1ccc2ccccc2c1 :: active
CCOC(=O)c1sc(NC(=O)COc2ccc(/C=C3\CCc4cc(OC)ccc4C3=O)cc2)nc1C :: inactive
OCc1n(Cc2ccc3ccccc3c2)cc[n+]1Cc1ccc2ccccc2c1 :: inactive
Nc1ccc(Oc2c(F)c(F)c(Oc3ccc(N)cc3)c(F)c2F)cc1 :: inactive

(Q) Outcome logged for O=C1NC(=O)/C(=C/c2ccc(Cl)cc2Cl)N1 in this assay:
(A) inactive

---

System: SF-539 CNS
method: NCI-60 one-dose screen, 48 h
assay-setup: 10 µM unless noted
The panel holds about 83,000 compounds, 20% with a hit somewhere; the sample as a whole holds those more often. Activity calls are given as the source filed them. How the source made its calls: active means growth percent below 10; inactive means the rest.
Choose one outcome from this list and give only that: Yes for active, No for inactive

Worked set:
CCCCc1ccc(C(N)=O)nc1 :: No
COC(=O)Nc1ccc2ccc3c(NC(=O)OC)ccc4ccc1c2c43 (tested in a mixture with another compound) :: No
c1ccc(-c2n(Cc3ccc4ccccc4c3)cc[n+]2Cc2ccc3ccccc3c2)cc1 :: Yes
O=C1CSC(c2ccccc2Cl)N1c1nnc(Cn2nnc3ccccc32)o1 (stereo not given) :: No
COc1cc(/C=C/C(=O)c2c(C)n([O-])c3ccc(Cl)cc3[n+]2=O)cc(OC)c1OC :: No

(Q) Outcome logged for COc1cccc(/C=C2\Cc3ccccc3C2=O)c1 in this assay:
(A) No

(Q) Outcome logged for COc1ccc(Oc2ccccc2NC(=O)CNC(=O)c2cccc3ccccc23)cc1 in this assay:
(A) Yes

(Q) Outcome logged for COCCCNS(=O)(=O)c1ncnc2nc[nH]c12 in this assay:
(A) No

(Q) Outcome logged for C(=C1c2ccccc2-c2ccccc21)c1ccccn1 in this assay:
(A) No

(Q) Outcome logged for Cn1c(=O)c2[nH]c(=S)n(Cc3ccccc3)c2n(C)c1=O in this assay:
(A) No

(Q) Outcome logged for COc1ccc(-c2cc(-c3cccnc3)nc3sc(C(=O)Nc4ccccc4)c(N)c23)cc1OC in this assay:
(A) No

---

Test system: BT-549 breast
method: NCI-60 one-dose screen, 48 h (100 = growth as untreated, 0 = no growth, -100 = all killed)
assay-setup: 10 µM unless noted
The panel holds about 83,000 compounds, 20% with a hit somewhere; the sample as a whole holds those more often.
Some molecules, each annotated with its measured growth.
Field: numeric (%). Do not append units.

A selection of reference data follows.
CC1(C)CC2(C)CC(=O)C1C(C(=O)O)C2C(=O)O (stereo not given) :: 116
CC(NC(=O)Oc1cccc2ccccc12)c1ccccc1 (stereo not given) :: 106

(Q) Complete the entry with growth for O=C(Nc1ccc2c(c1)C(=O)c1ccccc1-2)c1ccccc1
(A) 104

(Q) Complete the entry with growth for CCCn1c(N)c(C(=O)CNc2ccc(I)cc2)c(=O)[nH]c1=O
(A) 61.4

(Q) Complete the entry with growth for CC(C)N(Cc1ccccc1)c1c(Cl)ssc1=O
(A) 90.9

---

Some molecules, each annotated with its measured growth.
System: OVCAR-3 ovarian
method: NCI-60 one-dose screen, 48 h (100 = growth as untreated, 0 = no growth, -100 = all killed)
assay-setup: 10 µM unless noted
This is part of a sample that, as a whole, favours compounds with a hit. Of some 83,000 tested, about 20% had one in any assay. Activity calls are given as the source filed them. The calls were made as follows: active = growth percent below 10; inactive = the rest.

A selection of reference data follows.
COc1cc(-c2n[nH]nc2-c2ccccn2)cc(OC)c1OC :: 102% (inactive)
CC(C)N(Cc1ccccc1)c1c(S)ssc1=S :: 28.1% (inactive)
CCOc1cc(/C=C/C(=O)CC(=O)/C=C/c2ccc(OC(=O)CNCCN(CC)CC)c(OCC)c2)ccc1OC(=O)CNCCN(CC)CC :: 0.276% (active)

(Q) Complete the entry with growth for COc1ccc(C2CC(c3ccc(Nc4ccnc5cc(Cl)ccc45)cc3)=NN2C(C)=O)cc1 (centres undefined)
(A) 64.2% (inactive)

(Q) Complete the entry with growth for Cc1ccc(C(NC(=O)c2ccccc2)c2ccc3cccnc3c2O)cc1 (centres undefined)
(A) 31.5% (inactive)

(Q) Complete the entry with growth for O=C(CSc1nnc(-c2cc(-c3ccccc3)nc3ccccc23)o1)c1ccc(Br)cc1
(A) 108% (inactive)
